Item-by-item account of pIC50
- study system: Tb-labeled inactive PDGFRβ (Homo sapiens (Human))
- Sequence (P09619 33-1106): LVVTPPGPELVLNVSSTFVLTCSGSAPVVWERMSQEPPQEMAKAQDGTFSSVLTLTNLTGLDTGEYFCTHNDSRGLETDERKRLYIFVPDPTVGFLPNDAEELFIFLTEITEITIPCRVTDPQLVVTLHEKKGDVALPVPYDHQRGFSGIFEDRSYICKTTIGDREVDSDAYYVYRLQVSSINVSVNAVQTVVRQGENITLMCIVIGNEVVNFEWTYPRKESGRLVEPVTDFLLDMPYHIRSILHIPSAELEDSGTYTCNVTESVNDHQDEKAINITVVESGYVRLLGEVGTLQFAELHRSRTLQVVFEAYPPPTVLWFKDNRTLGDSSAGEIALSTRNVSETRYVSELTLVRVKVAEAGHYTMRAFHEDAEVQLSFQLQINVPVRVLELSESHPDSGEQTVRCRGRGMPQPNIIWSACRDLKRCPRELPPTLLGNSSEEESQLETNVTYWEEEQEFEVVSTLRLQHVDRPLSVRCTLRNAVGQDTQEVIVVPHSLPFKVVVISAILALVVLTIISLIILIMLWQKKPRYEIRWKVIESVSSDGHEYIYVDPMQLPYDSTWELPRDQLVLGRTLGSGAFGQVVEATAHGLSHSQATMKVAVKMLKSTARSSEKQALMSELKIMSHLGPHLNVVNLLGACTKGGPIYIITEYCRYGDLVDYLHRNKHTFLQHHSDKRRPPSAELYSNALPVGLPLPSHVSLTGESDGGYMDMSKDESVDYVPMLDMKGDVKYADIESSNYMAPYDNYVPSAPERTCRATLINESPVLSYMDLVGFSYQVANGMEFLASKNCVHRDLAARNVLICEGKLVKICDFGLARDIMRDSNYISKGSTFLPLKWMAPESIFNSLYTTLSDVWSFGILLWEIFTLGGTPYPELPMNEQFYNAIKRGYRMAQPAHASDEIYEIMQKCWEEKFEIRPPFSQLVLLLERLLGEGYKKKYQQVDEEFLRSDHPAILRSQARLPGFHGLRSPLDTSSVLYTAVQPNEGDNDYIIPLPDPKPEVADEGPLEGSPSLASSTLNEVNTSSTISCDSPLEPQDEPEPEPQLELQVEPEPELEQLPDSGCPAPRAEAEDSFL
- method description: PDGFRβ LanthaScreen Assay
- Format: binding
- condition details: read-out: PDGFR Lantha IC50
pIC50: −log10 of the molar value.

{"columns": ["compound", "censor symbol", "pIC50"],
 "data": [
  ["Cc1cc(C(=O)NCCN2CCC(O)CC2)sc1NC(=O)c1cnn2cc(-c3cnn(C)c3)sc12 [Example 191]", "<", 5.52],
  ["Cc1cc(C(=O)NCCN2CCC3(CCC3)CC2)sc1NC(=O)c1cnn2cc(-c3cnn(C)c3)sc12 [Example 203]", "=", 5.97],
  ["Cc1ncc(C(=O)NCCN2CCCC2(C)C)cc1NC(=O)c1cnn2cc(-c3cnn(C)n3)sc12 [Example 131]", "=", 8.04],
  ["Cc1ncc(NC(=O)CN2CCC3(CC3)C2)cc1NC(=O)c1cnn2cc(-c3cnn4c3COCC4)sc12 [Example 474]", "=", 8.77],
  ["Cc1ncc(C(=O)NCCN2CC3CCC2CC3)cc1NC(=O)c1cnn2cc(-c3cnn(CS(C)(=O)=O)c3)sc12 [Example 143]", "=", 8.28],
  ["Cc1ncc(NC(=O)CCN2CCCC2(C)C)cc1NC(=O)c1cnn2cc(-c3cnn(CCO)c3)sc12 [Example 88]", "=", 8.38],
  ["COCCCc1cn2ncc(C(=O)Nc3cc(C(=O)NCCN4CCCC4(C)C)cnc3C)c2s1 [Example 360]", "=", 7.00]
]}
